# target or system: human ether-à-go-go-related gene (hERG) potassium channel (human, UniProt Q12809);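 also: peak tail current of the secondary pulse compared with the same well before compound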
# Sequence (Q12809 whole entry, looked up): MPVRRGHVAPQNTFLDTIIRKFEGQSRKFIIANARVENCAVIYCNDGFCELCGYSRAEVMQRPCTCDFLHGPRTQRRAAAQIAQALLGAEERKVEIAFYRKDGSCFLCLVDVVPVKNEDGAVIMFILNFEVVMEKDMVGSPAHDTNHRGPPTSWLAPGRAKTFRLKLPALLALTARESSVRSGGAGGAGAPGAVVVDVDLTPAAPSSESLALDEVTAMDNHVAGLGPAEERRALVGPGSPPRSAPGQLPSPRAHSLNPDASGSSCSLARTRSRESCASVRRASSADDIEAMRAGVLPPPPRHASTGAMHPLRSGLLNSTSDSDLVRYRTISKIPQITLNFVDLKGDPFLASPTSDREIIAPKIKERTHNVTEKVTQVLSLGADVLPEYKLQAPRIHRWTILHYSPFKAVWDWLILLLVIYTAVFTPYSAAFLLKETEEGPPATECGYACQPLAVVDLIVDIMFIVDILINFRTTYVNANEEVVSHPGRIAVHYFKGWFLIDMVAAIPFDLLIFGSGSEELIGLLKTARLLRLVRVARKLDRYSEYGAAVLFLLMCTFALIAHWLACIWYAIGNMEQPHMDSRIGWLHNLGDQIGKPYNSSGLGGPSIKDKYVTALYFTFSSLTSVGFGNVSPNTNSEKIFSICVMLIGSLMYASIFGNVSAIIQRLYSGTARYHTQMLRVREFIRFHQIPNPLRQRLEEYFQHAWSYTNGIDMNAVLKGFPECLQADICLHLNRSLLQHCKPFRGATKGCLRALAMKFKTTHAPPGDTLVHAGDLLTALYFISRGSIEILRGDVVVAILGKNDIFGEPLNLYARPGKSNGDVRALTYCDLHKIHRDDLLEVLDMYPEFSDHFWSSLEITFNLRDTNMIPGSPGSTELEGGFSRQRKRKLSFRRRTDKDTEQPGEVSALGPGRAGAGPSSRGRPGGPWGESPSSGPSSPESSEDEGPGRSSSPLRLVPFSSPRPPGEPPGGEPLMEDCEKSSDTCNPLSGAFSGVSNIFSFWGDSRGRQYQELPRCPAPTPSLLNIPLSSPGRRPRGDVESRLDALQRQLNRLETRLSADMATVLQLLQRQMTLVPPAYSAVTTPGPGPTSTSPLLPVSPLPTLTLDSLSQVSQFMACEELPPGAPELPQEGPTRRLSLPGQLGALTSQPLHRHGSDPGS
# procedure text: primary screen, population patch clamp on CHO cells stably expressing hERG; higher = less effect of the substance
In all, about 310,000 compounds went through this assay and about 14,000 (4.5%) showed an effect of 50% or more. Effects have a minus sign here. The sample as a whole holds a higher share of strong results than the screen did.
Overview of recorded hERG current change (%, negative = inhibition) at 10uM for various compounds
Response body: numeric value in %, unit text excluded.

// known answers, use as guide
>>> readout_value("COc1ccccc1N1CCN(C(=O)CSc2nc3ncnc(N)c3[nH]2)CC1")
21.3
>>> readout_value("CC(C)(C)n1nnnc1SCC(=O)Nc1nn(-c2ccccc2)nc1C(N)=O")
9.33
>>> readout_value("Cc1c(C(=O)O)sc2c1c(=O)n(Cc1ccccc1)c(=O)n2C")
23.2
>>> readout_value("CN1CCN(c2nc(-c3ccccc3)c3cc(Cl)ccc3n2)CC1")
-48.1
>>> readout_value("O=C(CSc1nnc(Cn2c(=O)sc3ccccc32)n1-c1ccccc1)N1CCCCCC1")
-12.5

[in] Entry CCC(=O)N/C(N)=N/c1nc2ccccc2o1 has what hERG current change (%, negative = inhibition) at 10uM?
[out] -10.3

[in] Can you check COc1ccc(C2=NN(C(=O)CN3CCOCC3)C(c3nc4ccccc4[nH]3)C2)cc1 (stereo not shown) next?
[out] -8.74

[in] Can you check CCCN1Cc2cccc(C(=O)NC(CC(=O)OCC)c3ccc(C)cc3)c2C1=O (stereo not shown) next?
[out] -81.7

[in] Can you check CC1CN(C(=O)COC(=O)c2ccc(Cl)nc2)CC(C)O1 (stereo not shown) next?
[out] 6.41

[in] Can you check Clc1ccc2nc(N3CCNCC3)nc(-c3ccccc3)c2c1 next?
[out] -59.1

[in] Can you check C/C(=N\NC(=O)CN(c1ccc(C)cc1)S(C)(=O)=O)c1cccs1 next?
[out] -8.31

[in] Can you check CN(C)CC1CCCCC1OC(=O)/C=C/c1ccccc1.Cl (stereo not shown) next?
[out] -33.2

[in] Can you check CCCN1Cc2cccc(C(=O)NC(CC(=O)OCC)c3ccc(OCC)c(OC)c3)c2C1=O (stereo not shown) next?
[out] -31.2
